System: human cytomegalovirus
ASSAY EXPLANATION: CMV antiviral susceptibility assay: HCMV DNA by nucleic acid hybridization in infected MRC-5 cells (Tables I and II)
Type: cell-based
CONDITION SUMMARY: Human betaherpesvirus 5, MRC5, 120 h; HCMV-infected MRC-5 cells, HCMV DNA after five days; mean ± S.D. (n)
A collection of compounds and their measured pIC50
Would you please state pIC50, meaning minus log10 of the concentration in mol/L, as a bare number?

CCCCCCCCCCCCCCCCCCOC[C@@H](O)COP(=O)(O)CC(=O)OCC [B--PAA--OEt]	5.44
CCCCCCCCCCCCCCCCCCOC[C@@H](O)COP(=O)(O)C(=O)OCC [B--PFA--OEt]	5.92
CCCCCCCCCCCCCCCCCCOC[C@H](COP(=O)(O)CC(=O)O)OCc1ccccc1 [BB--PAA]	6.04

Assign pIC50 to the following record: CCCCCCCCCCCCCC(=O)OC[C@H](COP(=O)(O)CC(=O)O)OC(=O)CCCCCCCCCCCCC [DMG--PAA]
4.72

Fill in pIC50 for record O=C(O)P(=O)(O)O [PFA, phosphonoformic acid, reference compound]
4.34

Determine its reported pIC50: CCCCCCCCCCCCCCCCCCOC[C@@H](O)COP(=O)(O)C(=O)O [B--PFA]
6.37

Quickly give me recorded pIC50 for CCCCCCCCCCCCCCCCCCOC[C@@H](O)COP(=O)(O)CC(=O)O [B--PAA]
6.66

Note down pIC50 recorded for CCCCCCCCCCCCCCCCCCOC[C@H](COP(=O)(O)CC(=O)OCC)OCc1ccccc1 [BB--PAA--OEt]
5.14

Sourced from patent US5696277A
